Origin of measurements: ChEMBL document CHEMBL6078688

The entries below come with measured IC50 values attached.
# Tested on: J774.A1
# experiment: Anti-inflammatory activity in LPS-induced mouse J774.A1 cells assessed as inhibition of TNF-alpha production by ELISA
# Type: functional, cell-based
Note: state the figure and append the unit.

- compoundSmiles: "O[C@H](COc1ccc(Br)cc1)CN1CCN(Cc2cc3ccccc3[nH]2)CC1"
  endpoint: "IC50"
  result: "3.28 µM"

Now take the following compound into account.
The compound listed as O[C@@H](COc1ccc(Br)cc1)CN1CCN(Cc2cc3ccccc3[nH]2)CC1 has a reported IC50 of 3.75 µM

###

# experiment: Oral bioavailability in Sprague-Dawley rat at 20 mg/kg administration measured upto 24 hrs by LC-MS/MS analysis
# Format: ADME, organism-based
# testParameters: in vivo
endpoint: bioavailability (%)
Give the value, in units of %, as a plain number.

bioavailability reported for this molecule O[C@H](COc1ccc(Br)cc1)CN1CCN(Cc2cc3ccccc3[nH]2)CC1 : 20.7
